Target: T1, cynomolgus monkey CD96v2 expressed on cells (CHO cells; transiently transfected HEK cells) (cynomolgus monkey, UniProt A0A2K5TWV6 22-569)
T1 construct: the cell is named under assay; also called CHO-cyCD96; Cyno CD96v2
T1 sequence: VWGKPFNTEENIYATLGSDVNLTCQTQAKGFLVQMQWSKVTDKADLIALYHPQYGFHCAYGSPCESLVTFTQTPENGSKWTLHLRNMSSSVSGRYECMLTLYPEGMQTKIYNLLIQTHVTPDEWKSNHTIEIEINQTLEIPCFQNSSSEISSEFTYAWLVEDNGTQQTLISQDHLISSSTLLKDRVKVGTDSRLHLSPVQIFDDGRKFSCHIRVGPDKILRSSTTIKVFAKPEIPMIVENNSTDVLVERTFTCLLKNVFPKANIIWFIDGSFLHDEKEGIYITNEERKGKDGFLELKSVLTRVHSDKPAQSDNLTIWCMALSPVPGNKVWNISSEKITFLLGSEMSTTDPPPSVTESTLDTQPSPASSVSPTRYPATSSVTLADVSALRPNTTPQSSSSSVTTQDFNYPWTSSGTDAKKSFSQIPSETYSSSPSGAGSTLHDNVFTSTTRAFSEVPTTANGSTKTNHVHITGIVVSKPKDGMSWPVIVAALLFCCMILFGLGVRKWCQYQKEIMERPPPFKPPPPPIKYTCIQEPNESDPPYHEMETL
Experiment: flow cytometry on CHO cells expressing cynomolgus CD96v2
readout_name: EC50 (nM)
Write it as a number; the unit nM goes unstated.

Check out these entries, answers already filled in.
INSERT INTO results (binder, readout_name, assay_value) VALUES
  ('42Y073-1A01-100 (antibody, V domains shown, Fully human antibody) VH: QVQLVQSGAEVKKPGASVKVSCKASGYTFTTYRMHWVRQAPGQGLEWMGIINPSGGLTQYAQKFQGRVTMTRDTSTSTVYMELSSLRSEDTAVYYCARETAYYTTKGNWFDPWGQGTLVTVSS VL: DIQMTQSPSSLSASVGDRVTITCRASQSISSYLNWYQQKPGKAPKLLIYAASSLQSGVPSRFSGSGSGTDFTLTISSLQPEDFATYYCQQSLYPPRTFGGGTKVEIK', 'EC50', 0.04),
  ('42Y073-86F04-4 (antibody, V domains shown, Fully human antibody) VH: QVQLVQSGAEVKKPGSSVKVSCKASGGTFESEAISWVRQAPGQGLEWMGGIIPIFGRARYAQKFQGRVTITADESTSTAYMELSSLRSEDTAVYYCARLLGESGMDVWGQGTTVTVSS VL: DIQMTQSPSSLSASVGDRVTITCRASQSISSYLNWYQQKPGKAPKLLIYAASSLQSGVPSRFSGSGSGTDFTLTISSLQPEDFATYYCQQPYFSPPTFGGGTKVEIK', 'EC50', 0.07),
  ('42Y073-86F08-8 (antibody, V domains shown, Fully human antibody; also called 42Y073-88F08-8) VH: QVQLVQSGAEVKKPGSSVKVSCKASGGTFWLYAISWVRQAPGQGLEWMGGIIPQLGTANYAQKFQGRVTITADESTSTAYMELSSLRSEDTAVYYCARGAGYYGDKDPMDVWGQGTTVTVSS VL: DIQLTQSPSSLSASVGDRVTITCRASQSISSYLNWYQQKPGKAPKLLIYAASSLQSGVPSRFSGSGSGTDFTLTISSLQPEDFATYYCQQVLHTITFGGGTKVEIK', 'EC50', 0.03),
  ('42Y073-86F08-22 (antibody, V domains shown, Fully human antibody) VH: QVQLVQSGAEVKKPGASVKVSCKASGYTFDSYAMHWVRQAPGQGLEWMGGIIPIFGTAWYAQKFQGRVTITADESTSTAYMELSSLRSEDTAVYYCARGAGYYGDKDPMDVWGQGTTVTVSS VL: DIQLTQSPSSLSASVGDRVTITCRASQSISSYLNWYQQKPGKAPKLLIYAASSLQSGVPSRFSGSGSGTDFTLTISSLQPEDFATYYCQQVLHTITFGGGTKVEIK', 'EC50', 0.09);

Then there is this binder:
Query: Given the binder 42Y073-2B04-46 (antibody, V domains shown, Fully human antibody; also called 42Y073-2804-46) VH: QVQLQQWGAGLLKPSETLSLTCAVYGGSFRRYYWSWIRQPPGKGLEWIGEIDGWGSTNYNPSLKSRVTISVDTSKNQFSLKLSSVTAADTAVYYCARGGSVDFWSGSDYYYYMDVWGKGATVTVSS VL: EIVLTQSPATLSLSPGERATLSCRASQSVSSYLAWYQQKPGQAPRLLIYDASKRATGIPARFSGSGSGTDFTLTISSLEPEDFAVYYCQQLDNWPITFGGGTKVEIK , what is its reported EC50?
Reply: 0.04
